Form field: AUC0-T (one value per entry).
experiment: Pharmacokinetic evaluation of prodrugs in rats following intramuscular injection; assay type: in vivo, Male Sprague-Dawley rats; details: rat, IM injection; crystalline suspension or oil emulsion
observed property: AUC0-T (ng·days/mL)

| compound | display unit | observed measurement |
| --- | --- | --- |
| O=C(OCN1C(=O)CCc2ccc(OCCCCN3CCN(c4cccc(Cl)c4Cl)CC3)cc21)c1ccccc1 | ng·days/mL | 997 |
| CCCC(=O)OCN1C(=O)CCc2ccc(OCCCCN3CCN(c4cccc(Cl)c4Cl)CC3)cc21 | ng·days/mL | 1139.8 |
| O=C(OCN1C(=O)CCc2ccc(OCCCCN3CCN(c4cccc(Cl)c4Cl)CC3)cc21)N1CCOCC1 | ng·days/mL | 199.7 |
| O=C(OCN1C(=O)CCc2ccc(OCCCCN3CCN(c4cccc(Cl)c4Cl)CC3)cc21)C1CCC1 | ng·days/mL | 2095.8 |

###

assay: Pharmacokinetic evaluation of prodrugs in rats following intramuscular injection; type: in vivo, Male Sprague-Dawley rats; details: rat, IM injection; crystalline suspension or oil emulsion

| compound | AUC0-T |
| --- | --- |
| CCCCCCCCCCCC(=O)OCN1C(=O)CCc2ccc(OCCCCN3CCN(c4cccc(Cl)c4Cl)CC3)cc21 [Compound 7] | 1169.5 ng·days/mL |
| CCCCCC(=O)OCN1C(=O)CCc2ccc(OCCCCN3CCN(c4cccc(Cl)c4Cl)CC3)cc21 [Compound 4] | 1678 ng·days/mL |
| CCCCCCCCCC(=O)OCN1C(=O)CCc2ccc(OCCCCN3CCN(c4cccc(Cl)c4Cl)CC3)cc21 [Compound 6] | 1678.1 ng·days/mL |
| CCCCCCCC(=O)OCN1C(=O)CCc2ccc(OCCCCN3CCN(c4cccc(Cl)c4Cl)CC3)cc21 [Compound 5] | 1742 ng·days/mL |

###

assay: Pharmacokinetic evaluation of prodrugs in rats following intramuscular injection; type: in vivo, Male Sprague-Dawley rats; conditions: rat, IM injection; crystalline suspension or oil emulsion
observed property: AUC0-14 (ng·days/mL)

| molecule | observed measurement |
| --- | --- |
| CC(=O)OCN1C(=O)CCc2ccc(OCCCCN3CCN(c4cccc(Cl)c4Cl)CC3)cc21 [Compound 1] | 1673 |
| CCCCCCCCCC(=O)OCN1C(=O)CCc2ccc(OCCCCN3CCN(c4cccc(Cl)c4Cl)CC3)cc21 [Compound 6] | 1490.3 |
| O=C(OCN1C(=O)CCc2ccc(OCCCCN3CCN(c4cccc(Cl)c4Cl)CC3)cc21)C1CCC1 [Compound 34] | 2050 |
| CC(C)OC(=O)OCN1C(=O)CCc2ccc(OCCCCN3CCN(c4cccc(Cl)c4Cl)CC3)cc21 [Compound 48] | 2238 |
| CCCCCCCCCCCC(=O)OCN1C(=O)CCc2ccc(OCCCCN3CCN(c4cccc(Cl)c4Cl)CC3)cc21 [Compound 7] | 512.0 |
| CCOC(=O)OCN1C(=O)CCc2ccc(OCCCCN3CCN(c4cccc(Cl)c4Cl)CC3)cc21 [Compound 79] | 907.4 |
| O=C(OCN1C(=O)CCc2ccc(OCCCCN3CCN(c4cccc(Cl)c4Cl)CC3)cc21)c1ccccc1 [Compound 31] | 819.0 |
| O=C(OCN1C(=O)CCc2ccc(OCCCCN3CCN(c4cccc(Cl)c4Cl)CC3)cc21)N1CCOCC1 [Compound 49] | 152 |
| CC(C)CCOC(=O)OCN1C(=O)CCc2ccc(OCCCCN3CCN(c4cccc(Cl)c4Cl)CC3)cc21 [Compound 85] | 1233.9 |
| CCCCCC(=O)OCN1C(=O)CCc2ccc(OCCCCN3CCN(c4cccc(Cl)c4Cl)CC3)cc21 [Compound 4] | 1455.4 |
| CCCCCCCCCCCCCCCC(=O)OCN1C(=O)CCc2ccc(OCCCCN3CCN(c4cccc(Cl)c4Cl)CC3)cc21 [Compound 10] | 302 |
| CC(C)C(=O)OCN1C(=O)CCc2ccc(OCCCCN3CCN(c4cccc(Cl)c4Cl)CC3)cc21 [Compound 32] | 1334.4 |
| CCCC(=O)OCN1C(=O)CCc2ccc(OCCCCN3CCN(c4cccc(Cl)c4Cl)CC3)cc21 [Compound 2] | 1016.9 |
| CCCCCCCC(=O)OCN1C(=O)CCc2ccc(OCCCCN3CCN(c4cccc(Cl)c4Cl)CC3)cc21 [Compound 5] | 1728.6 |
| CNC(=O)OCN1C(=O)CCc2ccc(OCCCCN3CCN(c4cccc(Cl)c4Cl)CC3)cc21 [Compound 47] | 113 |

###

assay: Pharmacokinetic evaluation of prodrugs in rats following intramuscular injection; type: in vivo, Male Sprague-Dawley rats; conditions: rat, IM injection; solution in ethyl oleate; dose (mg/kg)
observed property: AUC0-14 (ng·days/mL)

| compound | observed property | observed measurement |
| --- | --- | --- |
| CCOC(=O)OCN1C(=O)CCc2ccc(OCCCCN3CCN(c4cccc(Cl)c4Cl)CC3)cc21 | AUC0-14 | 954 |
| CCCCCCCCCCOC(=O)OCN1C(=O)CCc2ccc(OCCCCN3CCN(c4cccc(Cl)c4Cl)CC3)cc21 | AUC0-14 | 204 |
| CCCCCCOC(=O)OCN1C(=O)CCc2ccc(OCCCCN3CCN(c4cccc(Cl)c4Cl)CC3)cc21 | AUC0-14 | 584 |
| CCCCCCCCCC(=O)OCN1C(=O)CCc2ccc(OCCCCN3CCN(c4cccc(Cl)c4Cl)CC3)cc21 | AUC0-14 | 67 |

###

test: Pharmacokinetic evaluation of prodrugs in rats following intramuscular injection; assay type: in vivo, Male Sprague-Dawley rats; settings: rat, IM injection; crystalline suspension or oil emulsion
observed property: AUC0-T (ng·days/mL)

| compound | observed property | observed measurement |
| --- | --- | --- |
| CC(C)CCOC(=O)OCN1C(=O)CCc2ccc(OCCCCN3CCN(c4cccc(Cl)c4Cl)CC3)cc21 | AUC0-T | 1348 |
| CC(C)C(=O)OCN1C(=O)CCc2ccc(OCCCCN3CCN(c4cccc(Cl)c4Cl)CC3)cc21 | AUC0-T | 1486 |
| CCOC(=O)OCN1C(=O)CCc2ccc(OCCCCN3CCN(c4cccc(Cl)c4Cl)CC3)cc21 | AUC0-T | 940 |
| CC(C)OC(=O)OCN1C(=O)CCc2ccc(OCCCCN3CCN(c4cccc(Cl)c4Cl)CC3)cc21 | AUC0-T | 2264.6 |
